Some compounds, each annotated with its measured Papp A→B.
- testedTarget: human BCRP (Homo sapiens)
- Construct: expressed in transfected cells; host or cells: MDCKII (Madin-Darby canine kidney) cells
- Sequence (Q9UNQ0 whole entry): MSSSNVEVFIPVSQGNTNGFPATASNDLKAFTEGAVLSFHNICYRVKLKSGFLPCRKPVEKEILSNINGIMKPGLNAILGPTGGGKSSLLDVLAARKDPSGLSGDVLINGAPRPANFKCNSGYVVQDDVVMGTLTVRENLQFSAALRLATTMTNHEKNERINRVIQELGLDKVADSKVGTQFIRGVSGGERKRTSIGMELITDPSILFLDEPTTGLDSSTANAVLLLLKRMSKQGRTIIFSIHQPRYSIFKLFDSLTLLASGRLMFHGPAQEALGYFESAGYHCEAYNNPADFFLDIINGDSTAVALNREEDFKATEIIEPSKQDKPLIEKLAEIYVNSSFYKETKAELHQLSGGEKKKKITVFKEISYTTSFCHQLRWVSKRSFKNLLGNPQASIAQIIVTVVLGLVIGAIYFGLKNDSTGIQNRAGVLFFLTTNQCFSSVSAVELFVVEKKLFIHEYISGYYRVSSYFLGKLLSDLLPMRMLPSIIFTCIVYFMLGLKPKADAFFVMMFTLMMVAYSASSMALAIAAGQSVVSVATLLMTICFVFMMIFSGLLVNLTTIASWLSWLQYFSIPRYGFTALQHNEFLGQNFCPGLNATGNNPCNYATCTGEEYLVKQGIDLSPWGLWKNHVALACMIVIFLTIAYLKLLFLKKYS
- procedureDetails: MDCK assay BCRP: permeability across MDCK-BCRP monolayers
- Type: in vitro ADME
- cond: MDCK-BCRP monolayers, apical-to-basal, pH 7.4, 1 or 10 μM
measuredQuantity: Papp A→B (×10⁻⁶ cm/s)

- compoundStructureString: "O=C(OCc1ccc(F)cc1)N1CCO[C@H](c2nc3cccnc3[nH]2)C1"
  testedTarget: "human BCRP (Homo sapiens)"
  u: "×10⁻⁶ cm/s"
  numericReadout: 34
- compoundStructureString: "Cc1ccc(COC(=O)N2CCO[C@H](c3nc4cccnc4[nH]3)C2)cc1F"
  testedTarget: "human BCRP (Homo sapiens)"
  u: "×10⁻⁶ cm/s"
  numericReadout: 69
- compoundStructureString: "O=C(OCc1ccc(C(F)F)cc1)N1CCO[C@H](c2nc3cccnc3[nH]2)C1"
  testedTarget: "human BCRP (Homo sapiens)"
  u: "×10⁻⁶ cm/s"
  numericReadout: 24
- compoundStructureString: "Cc1ccc(COC(=O)N2CCO[C@H](c3nc4cccnc4[nH]3)C2)c(F)c1"
  testedTarget: "human BCRP (Homo sapiens)"
  u: "×10⁻⁶ cm/s"
  numericReadout: 63
